What SPOT intensity was measured for each of the following?
target-entity: T1, Pex13, P80667
T1 sequence (P80667 295-386, looked up): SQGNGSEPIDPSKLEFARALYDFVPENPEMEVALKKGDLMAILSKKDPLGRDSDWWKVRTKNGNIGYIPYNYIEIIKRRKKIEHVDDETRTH
test: SPOT array
applied-conditions: median of control spots 1341
Answers are plain numbers.

Solved entries (count: 3):
YHSRRHPLALGFKYV	4
SSSSTPPTLPPRRIE	365
HHNRRKPLEVYFKAT	16

Lab note: next binder to report on.
Q: Fill in: SPOT intensity of NMLSRPRLAKLPSIR is ___
Result: 21
